As shown below, each of these compounds has a reported log10 of IC50 value.
- TESTED ON: human NHE3 (Homo sapiens, UniProt P48764)
- Sequence (P48764 26-834): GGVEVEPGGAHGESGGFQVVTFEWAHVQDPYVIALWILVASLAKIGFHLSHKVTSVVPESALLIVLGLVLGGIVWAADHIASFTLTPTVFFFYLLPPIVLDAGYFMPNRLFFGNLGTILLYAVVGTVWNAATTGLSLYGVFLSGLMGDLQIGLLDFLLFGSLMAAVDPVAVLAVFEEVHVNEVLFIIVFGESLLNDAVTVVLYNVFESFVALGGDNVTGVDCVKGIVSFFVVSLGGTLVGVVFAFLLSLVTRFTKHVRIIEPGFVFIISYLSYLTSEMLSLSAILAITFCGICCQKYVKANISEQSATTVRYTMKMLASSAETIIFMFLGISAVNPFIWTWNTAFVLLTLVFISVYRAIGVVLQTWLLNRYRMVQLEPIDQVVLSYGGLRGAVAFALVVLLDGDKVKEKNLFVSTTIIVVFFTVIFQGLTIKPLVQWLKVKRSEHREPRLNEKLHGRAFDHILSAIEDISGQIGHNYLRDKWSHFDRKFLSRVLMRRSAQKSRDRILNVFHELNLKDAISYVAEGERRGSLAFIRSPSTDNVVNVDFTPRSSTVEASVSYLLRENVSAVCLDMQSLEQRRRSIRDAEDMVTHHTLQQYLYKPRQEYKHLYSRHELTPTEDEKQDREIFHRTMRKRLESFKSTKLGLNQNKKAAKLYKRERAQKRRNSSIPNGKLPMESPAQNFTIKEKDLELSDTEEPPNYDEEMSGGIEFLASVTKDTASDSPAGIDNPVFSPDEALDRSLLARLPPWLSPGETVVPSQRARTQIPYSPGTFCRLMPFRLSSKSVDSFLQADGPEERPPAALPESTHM
- ASSAY OVERVIEW: NHE3 inhibition test (recovery of intracellular pH in cell line stably expressing human NHE3)
- MEASUREMENT PARAMETERS: OK cells deficient in endogenous NHE stably expressing human NHE3; BCECF fluorescence, initial rate of pH recovery; read-out: human NHE3 inhibitory activity IC50
Counter-ions that a name gives are not always drawn.
READOUT TYPE: log10 of IC50 (log10 of the value in µM)

1) CN1Cc2c(Cl)cc(Cl)cc2[C@H](c2cccc(-c3ccc(NCCOCCOCCNC(=O)c4ccccc4C(=O)NCCOCCOCCNc4ccc(-c5cccc([C@@H]6CN(C)Cc7c(Cl)cc(Cl)cc76)c5)cn4)nc3)c2)C1 [Example 8-4, hydrochloride] : -0.94
2) CN1Cc2c(Cl)cc(Cl)cc2[C@H](c2cccc(-c3cn(CCOCCOCCOCCNC(=O)NCCNC(=O)NCCNC(=O)NCCOCCOCCOCCn4cc(-c5cccc([C@@H]6CN(C)Cc7c(Cl)cc(Cl)cc76)c5)nn4)nn3)c2)C1 : -2.68
3) CN1Cc2c(Cl)cc(Cl)cc2C(c2cccc(-c3cn(C)nn3)c2)C1 (stereo not drawn) : -0.90
4) CN1Cc2c(Cl)cc(Cl)cc2[C@H](c2cccc(-c3cn(CCOCCOCCNC(=O)NCCCCNC(=O)NCCOCCOCCn4cnc(-c5cccc([C@@H]6CN(C)Cc7c(Cl)cc(Cl)cc76)c5)c4)cn3)c2)C1 : -2.09
5) CN1Cc2c(Cl)cc(Cl)cc2[C@H](c2cccc(-c3ccc(NCCOCCOCCNC(=O)CCC(=O)NCCOCCOCCNc4ccc(-c5cccc([C@@H]6CN(C)Cc7c(Cl)cc(Cl)cc76)c5)cn4)nc3)c2)C1 [Example 8-1, hydrochloride] : -1.83
6) CN1Cc2c(Cl)cc(Cl)cc2[C@H](c2cccc(-c3nnc(CCOCCOCCOCCNC(=O)[C@H](O)[C@@H](O)C(=O)NCCOCCOCCOCCc4nnc(-c5cccc([C@@H]6CN(C)Cc7c(Cl)cc(Cl)cc76)c5)[nH]4)[nH]3)c2)C1 [Example 8-15, diformate] : -2.72
7) CN1Cc2c(Cl)cc(Cl)cc2[C@H](c2cccc(-c3cc(NCCOCCOCCOCCNC(=O)CCC(=O)NCCOCCOCCOCCNc4cc(-c5cccc([C@@H]6CN(C)Cc7c(Cl)cc(Cl)cc76)c5)ncn4)ncn3)c2)C1 [Example 8-12, hydrochloride] : -2.21
8) CN1Cc2c(Cl)cc(Cl)cc2[C@H](c2cccc(-c3ccco3)c2)C1 : 0.51
9) CN1Cc2c(Cl)cc(Cl)cc2[C@H](c2cccc(-c3cc(NCCOCCOCCOCCNC(=O)Nc4ccc(NC(=O)NCCOCCOCCOCCNc5cc(-c6cccc([C@@H]7CN(C)Cc8c(Cl)cc(Cl)cc87)c6)ncn5)cc4)ncn3)c2)C1 [Example 7-16, hydrochloride] : -1.78
10) CN1Cc2c(Cl)cc(Cl)cc2[C@@H](c2cccc(-c3cc(NCCOCCOCCOCCNC(=O)COCC(=O)NCCOCCOCCOCCNc4cc(-c5cccc([C@@H]6CN(C)Cc7c(Cl)cc(Cl)cc76)c5)ncn4)ncn3)c2)C1 [Example 8-11, hydrochloride] : -2.12
11) CN1Cc2c(Cl)cc(Cl)cc2[C@H](c2cccc(-c3cc(OCCOCCOCCOCCNC(=O)NCCCCNC(=O)NCCOCCOCCOCCOc4cc(-c5cccc([C@@H]6CN(C)Cc7c(Cl)cc(Cl)cc76)c5)ncn4)ncn3)c2)C1 [Example 7-31, hydrochloride] : -1.91
12) CN1Cc2c(Cl)cc(Cl)cc2[C@H](c2cccc(-c3cn(CCOCCOCCOCCOCCNC(=O)NCCCCNC(=O)NCCOCCOCCOCCOCCn4cc(-c5cccc([C@@H]6CN(C)Cc7c(Cl)cc(Cl)cc76)c5)nn4)nn3)c2)C1 : -2.66
13) CN1Cc2c(Cl)cc(Cl)cc2[C@H](c2cccc(-c3cc(OCCOCCOCCOCCNC(=O)CCC(=O)NCCOCCOCCOCCOc4cc(-c5cccc([C@@H]6CN(C)Cc7c(Cl)cc(Cl)cc76)c5)ncn4)ncn3)c2)C1 [Example 8-22, hydrochloride] : -1.98
14) CN1Cc2c(Cl)cc(Cl)cc2[C@H](c2cccc(-c3ccc(NCCOCCOCCNC(=O)[C@H](O)[C@@H](O)C(=O)NCCOCCOCCNc4ccc(-c5cccc([C@@H]6CN(C)Cc7c(Cl)cc(Cl)cc76)c5)cn4)nc3)c2)C1 [Example 8-2, hydrochloride] : -1.97
15) CN1Cc2c(Cl)cc(Cl)cc2[C@H](c2cccc(-c3cc(NCCOCCOCCNC(=O)[C@H](O)[C@@H](O)C(=O)NCCOCCOCCNc4cc(-c5cccc([C@@H]6CN(C)Cc7c(Cl)cc(Cl)cc76)c5)ncn4)ncn3)c2)C1 [Example 8-8, hydrochloride] : -2.21
16) CN1Cc2c(Cl)cc(Cl)cc2[C@H](c2cccc(-c3nnn(CCOCCOCCOCCNC(=O)[C@@H](O)[C@H](O)[C@H](O)[C@@H](O)C(=O)NCCOCCOCCOCCn4nnc(-c5cccc([C@@H]6CN(C)Cc7c(Cl)cc(Cl)cc76)c5)n4)n3)c2)C1 [Example 8-25, hydrochloride] : -3.70
17) CN1Cc2c(Cl)cc(Cl)cc2[C@H](c2cccc(-c3ccncc3)c2)C1 : -0.66
18) CN1Cc2c(Cl)cc(Cl)cc2[C@H](c2cccc(-c3cccnn3)c2)C1 [Example 1-20, hydrochloride] : -0.68

###

- TESTED ON: UniProt:P48764
- ASSAY OVERVIEW: NHE3 inhibition test (recovery of intracellular pH in cell line stably expressing human NHE3)
- MEASUREMENT PARAMETERS: OK cells deficient in endogenous NHE stably expressing human NHE3; BCECF fluorescence, initial rate of pH recovery; read-out: human NHE3 inhibitory activity IC50
pIC50: −log10 of the molar value. Where a name gives a salt, the structure may show the parent alone.
As shown below, each of these molecules has a reported pIC50 value.
READOUT TYPE: pIC50

1. Cc1cc(-c2cccc([C@@H]3CN(C)Cc4c(Cl)cc(Cl)cc43)c2)cnn1 [Example 1-5, trifluoroacetate] : 7.24
2. CN1Cc2c(Cl)cc(Cl)cc2[C@H](c2cccc(-c3nn[nH]n3)c2)C1 : 7.05
3. CNc1cc(-c2cccc([C@@H]3CN(C)Cc4c(Cl)cc(Cl)cc43)c2)ccn1 [Example 1-9, trifluoroacetate] : 6.25
4. CCc1cc(-c2cccc([C@@H]3CN(C)Cc4c(Cl)cc(Cl)cc43)c2)ccn1 [Example 1-12, trifluoroacetate] : 6.19
5. CN1Cc2c(Cl)cc(Cl)cc2[C@H](c2cccc(-c3nnc(CCOCCOCCOCCNC(=O)[C@@H](O)[C@H](O)[C@H](O)[C@@H](O)C(=O)NCCOCCOCCOCCc4nnc(-c5cccc([C@@H]6CN(C)Cc7c(Cl)cc(Cl)cc76)c5)[nH]4)[nH]3)c2)C1 [Example 8-24, hydrochloride] : 8.47
6. CN1Cc2c(Cl)cc(Cl)cc2[C@H](c2cccc(-c3cc(NCCOCCOCCOCCNC(=O)CCCCC(=O)NCCOCCOCCOCCNc4cc(-c5cccc([C@@H]6CN(C)Cc7c(Cl)cc(Cl)cc76)c5)ncn4)ncn3)c2)C1 [Example 8-13, hydrochloride] : 7.97
7. CN1Cc2c(Cl)cc(Cl)cc2[C@H](c2cccc(-c3ccn[nH]3)c2)C1 : 6.41
8. CN1Cc2c(Cl)cc(Cl)cc2[C@H](c2cccc(-c3cn(CCOCCOCCNC(=O)[C@H](O)[C@@H](O)C(=O)NCCOCCOCCn4cc(-c5cccc([C@@H]6CN(C)Cc7c(Cl)cc(Cl)cc76)c5)nn4)nn3)c2)C1 [Example 6-6, hydrochloride] : 7.12
9. CN1Cc2c(Cl)cc(Cl)cc2[C@H](c2cccc(-c3cc(NCCOCCOCCOCCNC(=O)NCCCCNC(=O)NCCOCCOCCOCCNc4cc(-c5cccc([C@@H]6CN(C)Cc7c(Cl)cc(Cl)cc76)c5)ncn4)ncn3)c2)C1 [Example 7-40, trifluoroacetate] : 7.96
10. CN1Cc2c(Cl)cc(Cl)cc2[C@H](c2cccc(-c3nnn(CCOCCOCCOCCOCCNC(=O)NCCCCNC(=O)NCCOCCOCCOCCOCCn4nnc(-c5cccc([C@@H]6CN(C)Cc7c(Cl)cc(Cl)cc76)c5)n4)n3)c2)C1 : 8.16
11. CN1Cc2c(Cl)cc(Cl)cc2[C@H](c2cccc(-c3cc(OCCOCCOCCNC(=O)[C@H](O)[C@@H](O)C(=O)NCCOCCOCCOc4cc(-c5cccc([C@@H]6CN(C)Cc7c(Cl)cc(Cl)cc76)c5)ncn4)ncn3)c2)C1 [Example 8-16, hydrochloride] : 8.12

###

As shown below, each of these compounds has a reported IC50 value.
- TESTED ON: human NHE3 (Homo sapiens)
- ASSAY OVERVIEW: NHE3 inhibition test (recovery of intracellular pH in cell line stably expressing human NHE3)
- MEASUREMENT PARAMETERS: OK cells deficient in endogenous NHE stably expressing human NHE3; BCECF fluorescence, initial rate of pH recovery; read-out: human NHE3 inhibitory activity IC50
Structures can show the parent of a compound that is named as a salt.
READOUT TYPE: IC50 (nM)

1. CN1Cc2c(Cl)cc(Cl)cc2[C@H](c2cccc(-c3cc(NCCOCCOCCNC(=O)NCCCCNC(=O)NCCOCCOCCNc4cnnc(-c5cccc([C@@H]6CN(C)Cc7c(Cl)cc(Cl)cc76)c5)c4)cnn3)c2)C1 : 10
2. CN1Cc2c(Cl)cc(Cl)cc2[C@H](c2cccc(-c3cc(NCCOCCOCCOCCNC(=O)[C@@H](O)[C@H](O)[C@H](O)[C@@H](O)C(=O)NCCOCCOCCOCCNc4cc(-c5cccc([C@@H]6CN(C)Cc7c(Cl)cc(Cl)cc76)c5)ncn4)ncn3)c2)C1 [Example 8-26, hydrochloride] : 2.2
